# Tested on: Toledo cells
# ASSAY INFO: CellTiter-Glo viability, Toledo
# Type: cell-based
# CONDITION PARAMETERS: Homo sapiens, 72 h
MEASUREMENT LABEL: IC50 (nM)
Just the number in nM, nothing appended.

// IC50 value for `O=C(c1cc(-c2cc3c(cc2C(=O)N2Cc4ccccc4C[C@H]2CN2CCOCC2)OCO3)n2c1CCCC2)N(c1ccccc1)c1ccc(O)cc1` : 401

* * *

# Test system: primary Mantle Cell Lymphoma cells
# ASSAY INFO: Apoptosis (annexin V flow cytometry) in primary MCL cells
# Assay type: cell-based
# CONDITION PARAMETERS: Homo sapiens, 24 h, read-out: EC50 S55746 primary MCL cells, patient MCL3, 24 h
MEASUREMENT LABEL: pEC50
The quantity pEC50 is defined as the negative base-10 logarithm of the molar concentration.

So, O=C(c1cc(-c2cc3c(cc2C(=O)N2Cc4ccccc4C[C@H]2CN2CCOCC2)OCO3)n2c1CCCC2)N(c1ccccc1)c1ccc(O)cc1 [S55746] ? Its pEC50 was 7.92

* * *

# Tested on: primary Mantle Cell Lymphoma cells
# ASSAY INFO: Apoptosis (annexin V flow cytometry) in primary MCL cells
# Assay type: cell-based
# CONDITION PARAMETERS: Homo sapiens, 24 h, read-out: EC50 S55746 primary MCL cells, patient MCL5, 24 h
MEASUREMENT LABEL: EC50 (nM)
The response must be a number in nM with no trailing unit.

Considering `O=C(c1cc(-c2cc3c(cc2C(=O)N2Cc4ccccc4C[C@H]2CN2CCOCC2)OCO3)n2c1CCCC2)N(c1ccccc1)c1ccc(O)cc1` , its EC50 with primary Mantle Cell Lymphoma cells was recorded as 5

* * *

# System: primary Mantle Cell Lymphoma cells
# ASSAY INFO: Apoptosis (annexin V flow cytometry) in primary MCL cells
# Type: cell-based
# CONDITION PARAMETERS: Homo sapiens, 24 h, read-out: EC50 S55746 primary MCL cells, patient MCL7, 24 h
# Method: Peripheral blood samples from CLL patients were obtained with informed patient consent and local ethical committee approval (UHL-09723). […] Interphase fluorescence in situ hybridization (FISH) was performed for detection of 17p13 deletion. […] EC50 values were calculated using GraphPadPrism (non-linear fit, sigmoidal dose response, variable slope). […] Cell death was assessed in the CD19+ primary MCL cells by annexinV-FITC staining combined with an analysis of altered cellular morphology (lower FCS). […]
MEASUREMENT LABEL: pEC50
// returns pEC50 (minus log10 of molar concentration), number only

For this molecule ( `O=C(c1cc(-c2cc3c(cc2C(=O)N2Cc4ccccc4C[C@H]2CN2CCOCC2)OCO3)n2c1CCCC2)N(c1ccccc1)c1ccc(O)cc1` ), measured pEC50 is 8.52
